Tested on: 953936-095-R-J2-PDC spheroids with HUVEC/MSC, viability;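 also: spheroids exposed to compounds for seven days before read-out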
test-details: Anticancer human tumor 953936-095-R-J2-PDC patient-derived cervical squamous cell carcinoma cell line growth inhibition [PI3K]
test-parameters: second compound 0.1 µM; first compound 0.00316 µM; stronger effect = lower value
API: label(entry) gives met if the entry's viability, T/C is strictly smaller than 60%; on equality or larger values it gives not met.

Please check: viability, T/C for CCN1CCN(Cc2ccc(Nc3ncc(F)c(-c4cc(F)c5nc(C)n(C(C)C)c5c4)n3)nc2)CC1 + CC(Nc1ncnc2nc[nH]c12)c1cc2cccc(Cl)c2c(=O)n1-c1ccccc1 , strictly under 60% or not?
not met

Please check: viability, T/C for Cn1ncnc1[C@H]1c2n[nH]c(=O)c3cc(F)cc(c23)N[C@@H]1c1ccc(F)cc1 + COc1c(OCCCN2CCOCC2)ccc2c3n(c(=NC(=O)c4cnc(N)nc4)nc12)CCN3 , strictly under 60% or not?
met

Please check: viability, T/C for CC(C)n1nc(-c2ccc3oc(N)nc3c2)c2c(N)ncnc21 + CC(Nc1ccc2c(c1)OCCn1cc(N3C(=O)OCC3C(F)F)nc1-2)C(N)=O , strictly under 60% or not?
met

Further cases:
Please check: viability, T/C for CC(C)n1nc(-c2ccc3oc(N)nc3c2)c2c(N)ncnc21 + Cc1nc(NC(=O)N2CCCC2C(N)=O)sc1-c1ccnc(C(C)(C)C(F)(F)F)c1 , strictly under 60% or not?
not met

Please check: viability, T/C for CC(C)n1nc(-c2ccc3oc(N)nc3c2)c2c(N)ncnc21 + COc1c(OCCCN2CCOCC2)ccc2c3n(c(=NC(=O)c4cnc(N)nc4)nc12)CCN3 , strictly under 60% or not?
met

Please check: viability, T/C for Cn1ncnc1[C@H]1c2n[nH]c(=O)c3cc(F)cc(c23)N[C@@H]1c1ccc(F)cc1 + CC(Nc1ncnc2nc[nH]c12)c1cc2cccc(Cl)c2c(=O)n1-c1ccccc1 , strictly under 60% or not?
not met

Please check: viability, T/C for CC(=O)c1c(C)c2cnc(Nc3ccc(N4CCNCC4)cn3)nc2n(C2CCCC2)c1=O + CC(Nc1ncnc2nc[nH]c12)c1cc2cccc(Cl)c2c(=O)n1-c1ccccc1 , strictly under 60% or not?
not met

Please check: viability, T/C for CC(=O)c1c(C)c2cnc(Nc3ccc(N4CCNCC4)cn3)nc2n(C2CCCC2)c1=O + COc1c(OCCCN2CCOCC2)ccc2c3n(c(=NC(=O)c4cnc(N)nc4)nc12)CCN3 , strictly under 60% or not?
met

Please check: viability, T/C for CC(C)n1nc(-c2ccc3oc(N)nc3c2)c2c(N)ncnc21 + CC(Nc1ncnc2nc[nH]c12)c1cc2cccc(Cl)c2c(=O)n1-c1ccccc1 , strictly under 60% or not?
not met

Origin of measurements: PubChem BioAssay AID1963971
